# target under test: T1, Mouse TBK1 (1–657, S172A) (mouse, UniProt Q9WUN2 1-657, S172A)
# T1 sequence: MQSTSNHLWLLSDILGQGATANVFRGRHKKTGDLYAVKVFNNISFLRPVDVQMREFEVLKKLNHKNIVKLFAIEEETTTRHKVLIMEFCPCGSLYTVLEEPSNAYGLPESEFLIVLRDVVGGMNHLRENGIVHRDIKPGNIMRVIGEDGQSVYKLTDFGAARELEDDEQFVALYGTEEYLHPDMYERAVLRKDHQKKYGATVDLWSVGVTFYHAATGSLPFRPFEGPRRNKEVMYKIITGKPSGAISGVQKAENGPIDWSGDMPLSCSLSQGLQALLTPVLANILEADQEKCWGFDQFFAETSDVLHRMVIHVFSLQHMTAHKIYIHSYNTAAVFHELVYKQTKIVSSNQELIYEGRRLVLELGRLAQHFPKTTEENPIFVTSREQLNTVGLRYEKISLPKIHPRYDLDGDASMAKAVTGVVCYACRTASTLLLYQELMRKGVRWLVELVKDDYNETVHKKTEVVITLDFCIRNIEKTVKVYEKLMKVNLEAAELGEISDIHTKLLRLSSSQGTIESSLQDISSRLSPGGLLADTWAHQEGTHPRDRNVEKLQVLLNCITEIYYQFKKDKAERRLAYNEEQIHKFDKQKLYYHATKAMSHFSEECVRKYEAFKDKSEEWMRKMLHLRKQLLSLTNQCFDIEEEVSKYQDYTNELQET
# procedure summary: SPR
Ends that are not written are not given here.
endpoint label: Kd

[
  {
    "binder": "SGMEKPLPLREDWM (also: biotin on the Avi tag) [hSTING (366–379, T376E F378W 3379M)]",
    "value": "43.9 µM"
  },
  {
    "binder": "STSTMSQEPELLISGMEKPLPLRTDFS [p-hSTING (353–379)]",
    "value": "25.1 µM"
  },
  {
    "binder": "SGMEKPLPLRTDFS [p-hSTING (366–379)]",
    "value": "30.8 µM"
  },
  {
    "binder": "TWGSLKTSAVPSTSTMSQEPELLISGMEKPLPLRTDFS [p-hSTING (342–379)]",
    "value": "15.3 µM"
  },
  {
    "binder": "hSTING (155–379, T376E) (domain or fragment, biotin on the Avi tag) VAHGLAWSYYIGYLRLILPELQARIRTYNQHYNNLLRGAVSQRLYILLPLDCGVPDNLSMADPNIRFLDKLPQQTGDHAGIKDRVYSNSIYELLENGQRAGTCVLEYATPLQTLFAMSQYSQAGFSREDRLEQAKLFCRTLEDILADAPESQNNCRLIAYQEPADDSSFSLSQEVLRHLRQEEKEEVTVGSLKTSAVPSTSTMSQEPELLISGMEKPLPLREDFS",
    "value": "~62 µM"
  },
  {
    "binder": "p-hSTING (155–379) (domain or fragment) VAHGLAWSYYIGYLRLILPELQARIRTYNQHYNNLLRGAVSQRLYILLPLDCGVPDNLSMADPNIRFLDKLPQQTGDHAGIKDRVYSNSIYELLENGQRAGTCVLEYATPLQTLFAMSQYSQAGFSREDRLEQAKLFCRTLEDILADAPESQNNCRLIAYQEPADDSSFSLSQEVLRHLRQEEKEEVTVGSLKTSAVPSTSTMSQEPELLISGMEKPLPLRTDFS",
    "value": "9.1 µM"
  },
  {
    "binder": "SGMEKPLPLREDWI (also: biotin on the Avi tag) [hSTING (366–379, T376E F378W S379I)]",
    "value": "~59 µM"
  },
  {
    "binder": "SGMEKPLPLREDWF (also: biotin on the Avi tag) [hSTING (366–379, T376E F378W S379F)]",
    "value": "27.1 µM"
  }
]
